Please provide measured koff for the entries that follow.
Biological target: T1, human OX40 extracellular domain (ECD) protein (human, UniProt P43489 29-214)
T1 construct: extracellular domain; also called human OX40 ECD; human OX40 protein; not shown: human Fc or His tag
T1 sequence (looked up): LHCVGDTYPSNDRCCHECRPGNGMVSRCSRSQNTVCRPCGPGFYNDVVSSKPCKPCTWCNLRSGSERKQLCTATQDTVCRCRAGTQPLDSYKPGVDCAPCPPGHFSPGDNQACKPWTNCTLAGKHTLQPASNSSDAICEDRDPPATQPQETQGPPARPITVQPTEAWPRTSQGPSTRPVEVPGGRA
Experiment: SPR, Biacore T200, antibody captured, OX40 as analyte
Output should be the measured figure followed by the unit it is expressed in.

Quick check: koff of 1.214.23-u1-IgG1K (antibody, V domains shown, fully human IgG1, kappa) VH: QVQLQESGPGLVKPSGTLSLTCVVSGGSISNRNWWSWVRQPPGKGLEWIGEIFHSGNTNYNPSLKSRVTISVDKSKNQFSLKVNSVTAADTAVYYCAKSFAVALDSWGQGTLVTVSS VL: DIQLTQSPSFLSASVGDRVTITCRASQDINSYLAWCQQKPGKAPKLLIYAASSLQSGVPSRFSGTGSGTEFTLTISSLQPEDFATYYCQQLFSYPITFGQGTRLEIK ?
0.000214 s⁻¹

I would be grateful if you could share the reported koff for 1.7.10-u1-IgG1K (antibody, V domains shown, fully human IgG1, kappa) VH: QVHLVESGGGLVKPGGSLRLSCAASGFTFSDYYMSWIRQAPGKGLEWVSYISGSGNTIYYADSVKGRFTISRDNAKNSLYLQMNSLRADDTAVYFCARERGAAGTGWFDPWGQGTLVTVSS VL: DIQMTQSPSSVSASVGDRVTITCRASQGISSWLAWYQQKPGKAPKLLIYAASSLQGGVPSRFSGSGSGTDFTLTISSLQPEDFATYYCQQVNSFPWTFGQGTKVEIK .
0.00128 s⁻¹

Param item = 1.134.9-u1-IgG1L (antibody, V domains shown, fully human IgG1, lambda) VH: QVQLQESGPGLVKPSGTLSLTCAVSGGSISSYNWWSWVRQPPGKGLEWIGEIYHGGNTNYNPSLKSRVTMSVDNSKNQFSLKLSSVTAADTAVYYCARAPGDWGGSPYFDFWGQGTLVTVSS VL: SSELTQDPAVSVALGQTVRITCQGDNLRTYYASWYQQKPGQAPILLIYGRNKRPSGIPDRFSGSSSGNTASLTITGAQAEDEAAYYCNSRDSSGNPVVFGGGTKLTVL ; retrieve measured koff.
3.7e-05 s⁻¹
